# study system: T1, recombinant human NMES1 protein (Normal Mucosa of Esophagus Specific 1) (human, UniProt Q9C002 1-83, limits assumed)
# T1 construct: also called rhNMES1; recombinant NMES1 protein
# T1 sequence (Q9C002 whole entry, form in doubt): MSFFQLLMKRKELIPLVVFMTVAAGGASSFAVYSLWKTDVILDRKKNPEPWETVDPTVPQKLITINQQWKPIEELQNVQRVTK
# assay details: BLI (Octet), antibody on protein A biosensors, recombinant NMES1 0-900 nM, 1:1 fit
readout: kon (M⁻¹ s⁻¹)
Response body: numeric value in M⁻¹ s⁻¹, unit text excluded.

Record excerpt, results attached:
{"binder": "NMES-4 anti-NMES1 monoclonal antibody (antibody, IgG1, V domains shown, also called NM-4; NMES1-4) VH: EVQLVQSGGEVKKPGSSVKVSCKASGGTFSTYAISWVRQAPGQGLEWMGGIIPIFGTTNYAQKFQGRVTITADRSTSTAYMELSSLRSEDTAVYYCARVSELGDYYAMDVWGQGTTVTVSS VL: DIQMTQSPSSLSASVGDRVTITCRASQGIASALAWYQQKPGKAPKLLIYDASNLESGVPSRFSGSGSGTDFTLTISSLQPEDFATYYCQQAHSFPLTFGGGTKLEIK", "kon (M⁻¹ s⁻¹)": 223000}
{"binder": "NMES-3 anti-NMES1 monoclonal antibody (antibody, IgG1, V domains shown, also called NM-3; NMES1-3) VH: EVQLLQSGGGVVRPGGSLRLSCAASGFTFDDYGMSWVRQAPGKGLEWVSGINWNGGSTGYADSVKGRFTISRDNAKNSLYLQMNSLRAEDTALYYCARASMVRGVYAFDIWGQGTMVIVSS VL: DVQMTQSPSSLSASIGDRVTITCRASQSIGSYLNWYQQRPGKAPKLLIYSASSLQSGVPSRFSGSGSRSDFTLTIASLQPEDFATYYCQQSYSGPYTFGQGTKVDIK", "kon (M⁻¹ s⁻¹)": 53800}
{"binder": "NMES-10 anti-NMES1 monoclonal antibody (antibody, IgG1, V domains shown, also called NM-10; NMES1-10) VH: QVQLVQSGAEVKKPGASVKVSCKASGYTFTSYGISWVRQAPGQGLEWMGWISAYNGNTNYAQKLQGRVTMTTDTSTSTAYMELRSLRSDDTAVYYCARATFGNAFDIWGQGTTVTVSS VL: QSALTQPASVSGSPGQSITISCTGTSSDVGGYNYVSWYQQHPGKAPKLMIYDVSNRPSGVSNRFSGSKSGNTASLTISGLQAEDEADYYCSSYTSSSTLVVFGGGTKVTVL", "kon (M⁻¹ s⁻¹)": 146000}
{"binder": "NMES-6 anti-NMES1 monoclonal antibody (antibody, IgG1, V domains shown, also called NM-6; NMES1-6) VH: QVQLVQSGAEVKKPGASVKVSCKASGYTFTSYGISWVRQAPGQGLEWMGWISAYNGNTNYAQKLQGRVTMTTDTSTSTAYMELRSLRSDDTAVYYCARAVGQLAFDYWGQGTLVTVSS VL: QSALNQPPSASGSPGQSVTISCTGTSSDVGGYNYVSWYQQHPGKAPKLMIYEVSKRPSGVPDRFSGSKSGNTASLTVSGLQAEDEADYYCSSYAGSNNLVFGGGTKVTVL", "kon (M⁻¹ s⁻¹)": 227000}
{"binder": "NMES-5 anti-NMES1 monoclonal antibody (antibody, IgG1, V domains shown, also called NM-5; NMES1-5) VH: QVQLVQSGAEVKKPGASVKVSCKASGYTFTSYGISWVRQAPGQGLEWMGWISAYNGNTNYAQKLQGRVTMTTDTSTSTAYMELRSLRSDDTAVYYCARATRGNAFDIWGQGTMVSVSS VL: QSALTQPASVSGSPGQSITISCTGTSSDVGAYNYVSWYQQHPGKAPKLMIYDVSNRPSGVSNRFSGSKSGNTASLTISGLQAEDEADYYCSSYTRSTTVVFGGGTKVTVL", "kon (M⁻¹ s⁻¹)": 166000}

# query: kon of entry NMES-7 anti-NMES1 monoclonal antibody (antibody, IgG1, V domains shown, also called NM-7; NMES1-7) VH: EVQLVQSGAEVKKPGASVKVSCKASGYTFNRDAISWVRQAPGQGLEWMGWISGYNGNTYYAHKVLGRATMTTDTSTNTAYMELRSLTSDDTAMYYCARVGLQPDTTMDHWGQGTLVTVSS VL: DIQMTQSPSSLSASVGDRVTITCRASQDIRNDLAWYQQKPGKAPKLLIYTASSLQTGVPSRFSGSGSGTDFTLSISSLQPEDFATYYCLQDYKYPLTFGGGTKLEIK
150000

Would you mind doing NMES-1 anti-NMES1 monoclonal antibody (antibody, V domains shown, also called NM-1; NMES1-1) VH: QVQLVQSGGGVVQPGRSLRLSCAASGFTFSSYAMHWVRQAPGKGLEWVAVISYDGSNKYYADSVKGRFTISRDNSKNTLYLQMNSLRAEDTAVYYCARLSRFGDESLKDPDYWGQGTLVTVSS VL: DIVMTQSPLSLPVTLGQPASISCRSSQSLVHSDGNTYLNWFQQRPGQSPRRLIYKVSNRDSGVPDRFSGSGSGTDFTLKISRVEAEDVGVYYCMQGAHWPPTFGPGTKLEIK as well?
323000
